Each record here notes measured mass density.
- test context: 323.15 K; 101.33 kPa; Liquid; Vibrating tube method
Reply with just the number (in kg/m3).

Using known records, supply mass density for `CCCO`
778.96

Using known records, supply mass density for `CC(C)CO`
777.86

Using known records, supply mass density for `CCCCO`
786.21
